Target: Ataxin-2 (Homo sapiens)
Assay: qHTS for Inhibitors of ATXN expression.
Type: functional
Out of some 400,000 compounds screened, about 2,100 (0.53%) were called active. About 14% were inconclusive and are not listed. What follows is part of a selection rich in actives, with near analogues and random picks from the rest.
value.type: Potency

O=C(NCCN1CCCOC1=O)C(=O)NCCN1CCCOC1=O = inactive
COc1ccccc1[C@@H]1C(c2ccccc2)=NN(c2ccccc2)[C@H]1C(=O)N1CCOC1=O = inactive
CCCn1c(O)nnc1SCC(=O)N(C1CCCCC1)C1CCS(=O)(=O)C1 (configuration not stated) = inactive
Cc1cccc(OCCn2c(NC(=O)c3ccco3)nc3ccccc32)c1 = 39.8 µM (active)
CCCC1=Nc2ncnn2C(c2cccs2)/C1=C(\O)OCC (configuration not stated) = inactive
CCOc1ccc(-n2c(C)cc(C(=O)CCl)c2C)cc1 = 29.9 µM (active)
CCCn1nc(NC(=O)c2ccco2)c2cc3ccc(C)cc3nc21 = inactive
Nc1nc(-c2ccccc2)c(N=Nc2ccccc2Cl)s1 = 31.6 µM (active)
Cc1ccc(-c2nc(N)sc2C)cc1 = inactive
Nc1ccc2nc(-c3ccccc3)c(-c3ccccc3)nc2c1 = inactive

Looking for the measured Potency of C=CCN1c2ccccc2Sc2cnccc21 , can you help?
inactive

Looking for the measured Potency of O=S(=O)(CCc1ccncc1)Cc1ccc2c3c(cccc13)CC2 , can you help?
inactive

----------
Target: Ataxin-2 (Homo sapiens) (UniProt Q99700)
Sequence (Q99700 whole entry): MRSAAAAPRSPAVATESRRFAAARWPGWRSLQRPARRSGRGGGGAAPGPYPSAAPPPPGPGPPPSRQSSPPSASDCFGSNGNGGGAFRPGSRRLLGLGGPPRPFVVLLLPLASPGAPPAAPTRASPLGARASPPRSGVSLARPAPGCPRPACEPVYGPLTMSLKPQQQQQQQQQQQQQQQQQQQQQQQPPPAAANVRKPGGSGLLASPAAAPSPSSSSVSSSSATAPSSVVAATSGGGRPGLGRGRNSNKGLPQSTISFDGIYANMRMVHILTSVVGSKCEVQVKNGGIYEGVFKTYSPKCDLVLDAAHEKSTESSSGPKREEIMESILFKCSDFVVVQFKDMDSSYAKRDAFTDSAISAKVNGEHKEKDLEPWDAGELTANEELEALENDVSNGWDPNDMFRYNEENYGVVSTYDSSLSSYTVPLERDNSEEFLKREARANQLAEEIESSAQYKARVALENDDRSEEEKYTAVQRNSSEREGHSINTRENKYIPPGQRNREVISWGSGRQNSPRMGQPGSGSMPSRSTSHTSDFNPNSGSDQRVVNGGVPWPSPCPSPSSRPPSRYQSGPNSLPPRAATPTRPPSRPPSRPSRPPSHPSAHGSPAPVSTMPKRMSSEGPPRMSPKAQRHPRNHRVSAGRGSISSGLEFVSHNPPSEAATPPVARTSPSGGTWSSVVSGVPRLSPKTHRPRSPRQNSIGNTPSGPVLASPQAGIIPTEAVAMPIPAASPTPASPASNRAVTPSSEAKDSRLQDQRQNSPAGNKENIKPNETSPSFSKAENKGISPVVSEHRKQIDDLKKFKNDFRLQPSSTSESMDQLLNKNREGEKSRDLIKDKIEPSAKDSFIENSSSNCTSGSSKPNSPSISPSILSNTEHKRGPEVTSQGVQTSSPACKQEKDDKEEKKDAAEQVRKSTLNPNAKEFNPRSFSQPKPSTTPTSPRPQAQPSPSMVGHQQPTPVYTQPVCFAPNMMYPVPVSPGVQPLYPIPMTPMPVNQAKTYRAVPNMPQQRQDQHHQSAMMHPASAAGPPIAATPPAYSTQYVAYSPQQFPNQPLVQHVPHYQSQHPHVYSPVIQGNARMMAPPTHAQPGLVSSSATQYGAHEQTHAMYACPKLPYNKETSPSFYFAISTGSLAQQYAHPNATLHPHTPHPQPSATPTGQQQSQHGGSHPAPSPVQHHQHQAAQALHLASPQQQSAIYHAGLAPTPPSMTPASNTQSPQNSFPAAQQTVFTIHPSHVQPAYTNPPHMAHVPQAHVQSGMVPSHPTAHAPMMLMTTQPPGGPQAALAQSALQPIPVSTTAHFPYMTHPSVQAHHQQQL
Experiment: qHTS for Inhibitors of ATXN expression.
Assay type: functional
The whole screen tested about 400,000 compounds, of which about 2,100 (0.53%) were called active. About 14% were inconclusive and are not listed. No rule for the calls is given here. What follows is part of a selection rich in actives, with near analogues and random picks from the rest.
Answer with one of the outcomes given here: YES = active, NO = inactive

C=CCSc1nc2c(N)ncnc2n1C1OC(CO)C(O)C1O (stereo unspecified) = NO
COc1ccc(/C=c2\s/c(=C(/C#N)C(=O)NCc3ccco3)n(-c3ccccc3)c2=O)cc1 = NO
O=C(CCSc1ccc(Cl)cc1)Nc1cccnc1 = NO

Dear all, I need the recorded test outcome for COc1ccc(C(NC(=O)C2CCN(CCOc3ccc(Cl)cc3Cl)CC2)c2ccccc2C)cn1 (stereo unspecified) , thank you.
YES

Dear all, I need the recorded test outcome for COc1cc2cc(C(N)=O)c(N)nc2cc1OC , thank you.
NO

Dear all, I need the recorded test outcome for C#CC(=O)N(c1ccc(OC)cc1OC)C(C(=O)NC1CCCC1)c1cccs1 (stereo unspecified) , thank you.
YES

Dear all, I need the recorded test outcome for COc1cc(OC)nc(C(NC(=O)C2CCN(Cc3c[nH]c4ccccc34)CC2)c2ccc(Cl)cc2)n1 (stereo unspecified) , thank you.
YES

Dear all, I need the recorded test outcome for COc1cc(C(=O)OC(C)C(=O)NC(=O)NC2CCCCC2)ccc1OC(F)F (stereo unspecified) , thank you.
NO

Dear all, I need the recorded test outcome for O=C(CN(C(=O)CNC(=O)c1cccs1)c1ccccc1)NC1CCCCC1 , thank you.
NO

Dear all, I need the recorded test outcome for CCN(CC)Cc1cc(O)c(CN(CC)CC)cc1O , thank you.
NO

Dear all, I need the recorded test outcome for COc1ccccc1[C@@H]1C(c2ccccc2)=NN(c2ccc(Br)cc2)[C@H]1C(=O)N1CCOC1=O , thank you.
NO

Dear all, I need the recorded test outcome for COCCCNC(=O)/C(C#N)=C/c1c(N2CCN(C)CC2)nc2c(C)cccn2c1=O , thank you.
NO

Dear all, I need the recorded test outcome for O=C(NC(c1ccc(Cl)cc1)c1cccnc1)C1CCN(CCOc2ccc(Cl)cc2Cl)CC1 (stereo unspecified) , thank you.
YES

Dear all, I need the recorded test outcome for O=C(NC(c1ccc(F)cc1)c1ccc2ccccc2n1)C1CCN(CCOc2ccc(Cl)cc2Cl)CC1 (stereo unspecified) , thank you.
YES

Dear all, I need the recorded test outcome for C#CC(=O)N(c1ccc(OC)c(OC)c1)C(C(=O)NC1CCCC1)c1cccs1 (stereo unspecified) , thank you.
YES

----------
Target: Ataxin-2 (Homo sapiens)
Assay: qHTS for Inhibitors of ATXN expression.
Type: functional
Among all 400,000 compounds or so, about 2,100 (0.53%) were called active. About 14% were inconclusive and are not listed. No rule for the calls is given here. The list comes from a sample in which actives are over-represented; it also holds close analogues and randomly drawn compounds.
Answer with one of the outcomes given here: label 1 = active, label 0 = inactive

Answered cases to consult:
O=C1NC(Cc2ccc(O)cc2)c2nc3cc(F)c(F)cc3c(=O)n2-c2cc3ccccc3cc21 (stereo not given) = label 1
O=C(NCC1CCCCC1)C1(CC2CC(c3cccc(Br)c3)=NO2)CCNCC1 (stereo not given) = label 1
CC(C)(C)C(=O)/C(=C/c1ccncc1)n1cncn1 = label 1
CC(/C=N\NC(=O)Cn1cncn1)=C/c1ccc(C(C)C)cc1 = label 0

Shift focus to the following entry.
Dear all, I need the recorded test outcome for COC(=O)c1ccc2oc(=O)c(S(=O)(=O)c3ccc(C)cc3)cc2c1 , thank you.
label 0

----------
Target: Ataxin-2 (Homo sapiens)
Experiment: qHTS for Inhibitors of ATXN expression.
Assay type: functional
Hit rate of the full screen: of about 400,000 compounds, about 2,100 (0.53%) were called active. Inconclusive results (about 14%) are left out. How the calls were made is not given here. The entries come from a sample that favours actives as a whole.
Answer with one of the outcomes given here: yes for active, no for inactive

Answered cases to consult:
O=[N+]([O-])c1ccc(/C=N/Nc2ncc(-c3ccccc3)cn2)cc1 = no
O=c1oc2c3c4c(cc2c(C(F)(F)F)c1CCN1CCOCC1)CCCN4CCC3 = no
Cc1cc2sc3ccccc3c(=O)c2c(C)c1O = no

Dear all, I need the recorded test outcome for Cc1cccc(N=Nc2c(O)[nH]c3ccc(F)cc23)c1 , thank you.
no

Dear all, I need the recorded test outcome for Fc1ccc(-c2nc3cnccn3c2NC2CCCC2)cc1 , thank you.
no

----------
Target: Ataxin-2 (Homo sapiens) (UniProt Q99700)
Test: qHTS for Inhibitors of ATXN expression.
Type: functional
About 2,100 (0.53%) of roughly 400,000 compounds were called active. Not shown: some 14% with an inconclusive outcome. This excerpt belongs to a sample that is enriched for actives.
value.type: Potency

A selection of reference data follows.
COc1ccc(NC(=O)COC(=O)c2[nH]nc3ccccc23)c(OC)c1 = inactive
Cc1c(C)c2cc(Cl)c(O)c(CN(C)C)c2oc1=O = inactive
FC(F)(F)c1cc(CCN2CCNC[C@@H]2Cc2ccccc2)cc(C(F)(F)F)c1 = 25.1 µM (active)
CCn1c(=O)cc(SCC(=O)N2CCN(c3cc(C)ccc3C)CC2)c2ccccc21 = 35.5 µM (active)

// lookup Potency | system=Ataxin-2 (Homo sapiens) (UniProt Q99700) | key= Cc1cc(-c2cccs2)c2c(N)c(C(=O)c3ccc4c(c3)OCO4)sc2n1
inactive

// lookup Potency | system=Ataxin-2 (Homo sapiens) (UniProt Q99700) | key= COc1cc(CN2CCCC(CO)(Cc3cccc(Cl)c3)C2)cc(OC)c1O (configuration not stated)
inactive

// lookup Potency | system=Ataxin-2 (Homo sapiens) (UniProt Q99700) | key= CC(C)CCN1C(=O)c2cccc3c(N)ccc(c23)C1=O
inactive

// lookup Potency | system=Ataxin-2 (Homo sapiens) (UniProt Q99700) | key= CCOC(=O)c1c(N=C(S)Nc2ccccc2)sc2c1CCN(CC)C2
inactive

----------
Biological target: Ataxin-2 (Homo sapiens)
Experiment: qHTS for Inhibitors of ATXN expression.
Assay type: functional
In all, about 400,000 compounds went through this assay and about 2,100 (0.53%) were called active. About 14% were inconclusive and are not listed. No rule for the calls is given here. The sample holds actives, similar compounds and a random draw of the others, so the mix is not that of the screen.
Answer with one of the outcomes given here: active, inactive

CC[C@H]1C(c2ccc(F)cc2)=NN(c2ccccc2)[C@@H]1CO = inactive
CCOc1ccc2nc(NCCCNS(=O)(=O)c3ccc(C)cc3)c(C#N)cc2c1 = inactive
COCCCn1c(C(=O)N2CCOCC2)cc2c(=O)n3ccccc3nc21 = inactive

Dear all, I need the recorded test outcome for CC[C@@H](C)[C@H](CN[C@H](CNC)C(C)C)NC[C@@H](C)c1ccc(CC(C)C)cc1 , thank you.
active

Dear all, I need the recorded test outcome for Cc1cc(N/N=C/c2ccc([N+](=O)[O-])o2)nc2ccccc12 , thank you.
inactive

----------
Biological target: Ataxin-2 (Homo sapiens)
Assay: qHTS for Inhibitors of ATXN expression.
Type: functional
The whole screen tested about 400,000 compounds, of which about 2,100 (0.53%) were called active. Another 14% or so got no clear call; they are omitted. How the calls were made is not given here. For the sample, actives were picked, then their nearest neighbours and some compounds at random.
Answer with one of the outcomes given here: active, inactive

Dear all, I need the recorded test outcome for Cc1ccc2c(Cl)cc(Cl)c(OCC(=O)NC(C)(C)C)c2n1 , thank you.
inactive

Dear all, I need the recorded test outcome for CCCc1ccc(C(=O)NNc2cc(Cl)ccc2Cl)cc1 , thank you.
inactive

Dear all, I need the recorded test outcome for Cc1ccc(C(C(=O)NCC2CCCO2)N(C(=O)c2snc(C(N)=O)c2N)c2ccccc2F)o1 (stereo not drawn) , thank you.
inactive

// provenance: ChEMBL document CHEMBL1201862
